- TEST TARGET: human OAT3 (Homo sapiens)
- Sequence (Q8TCC7 whole entry): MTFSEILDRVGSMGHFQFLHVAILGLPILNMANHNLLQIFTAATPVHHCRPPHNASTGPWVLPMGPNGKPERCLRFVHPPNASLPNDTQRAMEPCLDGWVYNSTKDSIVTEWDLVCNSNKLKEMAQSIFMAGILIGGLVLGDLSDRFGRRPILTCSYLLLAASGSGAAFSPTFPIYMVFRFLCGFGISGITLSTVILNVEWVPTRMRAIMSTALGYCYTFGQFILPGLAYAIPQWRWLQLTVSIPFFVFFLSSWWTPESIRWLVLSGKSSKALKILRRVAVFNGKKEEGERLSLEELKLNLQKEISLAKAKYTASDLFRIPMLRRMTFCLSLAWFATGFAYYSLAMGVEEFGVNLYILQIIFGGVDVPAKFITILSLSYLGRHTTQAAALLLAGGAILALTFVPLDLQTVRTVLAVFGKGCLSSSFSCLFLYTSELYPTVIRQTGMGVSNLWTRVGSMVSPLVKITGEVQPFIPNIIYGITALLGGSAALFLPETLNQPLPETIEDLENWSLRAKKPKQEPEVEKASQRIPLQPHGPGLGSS
- METHOD NOTES: Inhibition of OAT3-mediated 6-carboxyfluorescein
- STATED CONDITIONS: read-out: Ki (OAT3)
Structures can show the parent of a compound that is named as a salt.
READOUT: pKi
Please note pKi is a logarithmic value: minus log10 of concentration in mol/L. Answer with that number alone.

Below, each entry is followed by its recorded pKi result.
NS(=O)(=O)c1ccc(-n2nc(C(F)(F)F)cc2-c2ccc(C(=O)O)cc2)cc1: 5.07
CN(CCOc1ccc(CC2SC(=O)NC2=O)cc1)c1ccc(OS(=O)(=O)O)cn1 (stereo not shown) [5-OH-rosiglitazone sulfate]: 5.88
CC(=O)c1ccc(CCOc2ccc(CC3SC(=O)NC3=O)cc2)nc1 (stereo not shown): 6.14

With those in mind, consider the next compound.
Ask: Provide measured pKi value, entry: O=c1n(CCCN2CCN(c3ccc(O)c(Cl)c3)CC2)nc2ccccn12 [4-hydroxy-trazodone]
Result: 4.77
